# Tested on: SK-OV-3
# TEST NAME: NCI tumour cell line growth inhibition, 48 h
Activity calls are given as the source filed them. No stated cut-off is given here; in the data, active = GI50 up to about 1.1 µM and inactive = higher.
READOUT: GI50

{"QUERY SMILES": "Nc1nnc(NC(=O)C2=NS(=O)(=O)c3cc(S(N)(=O)=O)c(Cl)cc3N2)[nH]1", "SUBJECT OF TEST": "SK-OV-3", "READOUT": "GI50", "OBSERVED VALUE": "> 100 µM (inactive)"}
{"QUERY SMILES": "COc1ccc(C(F)(F)F)cc1NC(=O)O/N=C(/Cl)C(C)C", "SUBJECT OF TEST": "SK-OV-3", "READOUT": "GI50", "OBSERVED VALUE": "> 47.5 µM (inactive)"}

Look up GI50 for this compound: COc1cc(/C=C2\C[C@H]3[C@@H]4CC=C5C[C@@H](O)CC[C@]5(C)[C@H]4CC[C@]3(C)C2=O)cc(OC)c1OC
53.1 µM (inactive)
